test system: primary rat mixed cortical cells; test: In vitro myelination assay (MBP positive myelin strands, fold myelin pixels above background); assay type: cell-based; conditions: Rattus norvegicus, 1.0 μM compound, relative to baseline of no added compound; read-out: Fold myelin pixels above background
parameter: fold induction at 1 µM

For orientation, consider the following solved cases.
compound	parameter	reading
Cc1cc(Nc2ncn(-c3cccc(F)c3)n2)cc(C2CCCN(C3COC3)C2)c1 (stereo not shown)	fold induction at 1 µM	100 to 1000
Cc1cc(Nc2ncn(-c3ccc(Cl)c(F)c3)n2)nc(N2CCN(C3COC3)CC2)c1	fold induction at 1 µM	10 to 100
COC1CCCN(c2cc(C)cc(Nc3ncn(-c4cc(F)cc(F)c4)n3)n2)C1 (stereo not shown)	fold induction at 1 µM	1 to 10

As a next step, examine the compound that follows.
### Prompt Return value of fold induction at 1 µM for input `N#Cc1cc(Nc2ncn(-c3cnccn3)n2)cc(N2CCOCC2)c1` , no commentary.
### Response 10 to 100

====

Documented fold induction at 10 µM across a set of compounds
system: primary rat mixed cortical cells; test: In vitro myelination assay (MBP positive myelin strands, fold myelin pixels above background); assay type: cell-based; settings: Rattus norvegicus, 10.0 μM compound, relative to baseline of no added compound; read-out: Fold myelin pixels above background, 10.0 μM

compound	system tested	parameter	reading
Cc1cc(Nc2ncn(-c3cc(F)cc(F)c3)n2)cc(N2CCN(C(=O)OCC(F)(F)F)CC2)c1	primary rat mixed cortical cells	fold induction at 10 µM	≤ 1

Now look at this one.
### Prompt Fill in reported fold induction at 10 µM for this entry: `Cc1cc(Nc2ncn(-c3cccc(F)c3)n2)cc(N2CCCC2)c1`
### Response ≤ 1

====

test system: primary rat mixed cortical cells; assay: In vitro myelination assay (MBP positive myelin strands, fold myelin pixels above background); format: cell-based; conditions: Rattus norvegicus, 10.0 μM compound, relative to baseline of no added compound; read-out: Fold myelin pixels above background, 10.0 μM
Here, each record is paired with measured fold induction at 10 µM data.

compound	system tested	parameter	reading
Cc1cc(Nc2ncn(-c3cc(F)cc(OC(C)C)c3)n2)cc(N2CCN(C)CC2)c1	primary rat mixed cortical cells	fold induction at 10 µM	≤ 1
Cc1cc(Nc2ncn(-c3cccc(F)c3)n2)cc(N2CCOCC2)c1	primary rat mixed cortical cells	fold induction at 10 µM	100 to 1000
Cc1cc(Nc2ncn(-c3ccccc3)n2)cc(C2(F)CCN(C3COC3)C2)c1 (centres unmarked)	primary rat mixed cortical cells	fold induction at 10 µM	1 to 10

### Prompt Assign fold induction at 10 µM to the following record: Cc1cc(Nc2ncn(-c3cc(F)cc(F)c3)n2)cc([C@H]2CCN(C3COC3)C[C@@H]2O)c1 (racemic)
### Response 10 to 100

### Prompt Quickly give me recorded fold induction at 10 µM for Cc1cc(Nc2ncn(-c3ccccc3)n2)cc(N2CCN(C)C(C)C2)c1 (centres unmarked)
### Response ≤ 1

### Prompt Given `CC(C)(C)c1cc(Nc2ncn(-c3cnccn3)n2)cc(N2CCN(C3COC3)CC2)c1` , respond with its fold induction at 10 µM.
### Response 1000 to 10000

### Prompt Specify measured fold induction at 10 µM for `Cc1ccc(-n2cnc(Nc3cc(C)cc(N4CCCC4)c3)n2)cc1` .
### Response 10 to 100

### Prompt Quick one: give measured fold induction at 10 µM for `Clc1cc(Nc2ncn(-c3ccccc3)n2)cc(N2CCOCC2)c1`
### Response 10 to 100

### Prompt Please report the measured fold induction at 10 µM for `Cc1cc(Nc2ncn(-c3cc(F)cc(F)c3)n2)cc(N2CCN(C)C(=O)C2)c1`
### Response 10 to 100

### Prompt Retrieve fold induction at 10 µM measured for `Cc1cc(Nc2ncn(-c3cc(F)cc(F)c3)n2)cc(NC2COC2)c1` and print it.
### Response 1 to 10

### Prompt For the compound Cc1cc(Nc2ncn(-c3cc(F)cc(F)c3)n2)cc(N2CCN(C3CCOC3)CC2)c1 (centres unmarked) , give its reported fold induction at 10 µM.
### Response 100 to 1000

### Prompt Give reported fold induction at 10 µM value for `Cc1cc(Nc2ncn(-c3cc(F)cc(F)c3)n2)cc(N2CCNCC2=O)c1`
### Response 100 to 1000

### Prompt Identify fold induction at 10 µM associated with the compound CN(C)C1CCN(c2cc(F)cc(Nc3ncn(-c4cccc(F)c4)n3)c2)C1 (centres unmarked)
### Response ≤ 1
